Each recorded value in this set is attributed to patent US20050209256A1.

pIC50 for assorted molecules
# assay.target: human CGRP receptor (Homo sapiens, UniProt O60894+Q16602)
# Construct: SK-N-MC cells that endogenously express the human CGRP receptor; endogenous in cells
# protocol.notes: Radioligand binding assay, [125I]-CGRP competition on SK-N-MC cell homogenates
# measurement.context: Binding data, [125I]-CGRP 40 pM, room temperature
pIC50: −log10 of the molar value.

>  <molecule>
CC(=O)c1ccc(NC(=O)N2CCC(=O)N3[C@@H]2CN(CCc2cccc(F)c2)C(=O)[C@@H]3Cc2ccccc2)cc1 [Compound 22]

>  <pIC50>
5.66

$$$$
>  <molecule>
CCSCC1C(=O)N(CCc2cccc(F)c2)C[C@@H]2N(C(=O)Nc3ccc(C(C)=O)cc3)CCC(=O)N12 (stereo in doubt) [Compound 35]

>  <pIC50>
6.61

$$$$
>  <molecule>
CC(=O)c1ccc(NC(=O)N2CCC(=O)N3[C@@H](C(C)C)C(=O)N(CCc4cccc(F)c4)C[C@H]23)cc1 [Compound 20]

>  <pIC50>
6.04

$$$$
>  <molecule>
CC(=O)c1ccc(NC(=O)N2CCC(=O)N3[C@@H](C4CCCCC4)C(=O)N(CCc4ccccc4)C[C@H]23)cc1 [Compound 1]

>  <pIC50>
7.10

$$$$
>  <molecule>
CC(=O)c1ccc(NC(=O)N2CCC(=O)N3[C@@H]2CN(CCc2cccc(F)c2)C(=O)[C@@H]3Cc2ccc([N+](=O)[O-])cc2)cc1 [Compound 27]

>  <pIC50>
5.88

$$$$
>  <molecule>
CC(=O)c1ccc(NC(=O)N2CCC(=O)N3[C@@H](c4ccc(F)c(F)c4)C(=O)N(CCc4ccccc4)C[C@H]23)cc1 [Compound 59]

>  <pIC50>
6.57

$$$$

* * *

# assay.target: human CGRP receptor (Homo sapiens, UniProt O60894+Q16602)
# Construct: SK-N-MC cells that endogenously express the human CGRP receptor; endogenous in cells; host or cells: SK-N-MC cells (membrane homogenates)
# protocol.notes: Radioligand binding assay, [125I]-CGRP competition on SK-N-MC cell homogenates
# measurement.context: Binding data, [125I]-CGRP 40 pM, room temperature
pIC50: −log10 of the molar value.
Each entry below carries its reported pIC50.

>  <chemical.string>
CCCC[C@H]1C(=O)N(CCc2cccc(F)c2)C[C@@H]2N(C(=O)Nc3ccc(C(C)=O)cc3)CCC(=O)N21

>  <pIC50>
6.93

$$$$
>  <chemical.string>
NC(=O)c1ccc(NC(=O)N2CCC(=O)N3[C@@H]2CN(CCc2ccccc2)C(=O)[C@@H]3CC2CCCCC2)cc1

>  <pIC50>
4.92

$$$$
>  <chemical.string>
CSCC[C@H]1C(=O)N(CCc2cccc(F)c2)C[C@@H]2N(C(=O)Nc3ccc(C(C)=O)cc3)CCC(=O)N21

>  <pIC50>
6.67

$$$$
>  <chemical.string>
CC(=O)c1ccc(NC(=O)N2CCC(=O)N3[C@@H]2CN(CCc2cccc(F)c2)C(=O)[C@@H]3Cc2cc(F)cc(F)c2)cc1

>  <pIC50>
6.40

$$$$
>  <chemical.string>
CC(=O)c1ccc(NC(=O)N2CCC(=O)N3[C@@H]2CN(CCc2cccc(F)c2)C(=O)[C@@H]3COCc2ccccc2)cc1

>  <pIC50>
6.22

$$$$
>  <chemical.string>
CC[C@@H](C)[C@H]1C(=O)N(CCc2cccc(F)c2)C[C@@H]2N(C(=O)Nc3ccc(C(C)=O)cc3)CCC(=O)N12

>  <pIC50>
6.63

$$$$
>  <chemical.string>
CC(=O)c1ccc(NC(=O)N2CCC(=O)N3[C@@H]2CN(CCc2cccc(F)c2)C(=O)[C@@H]3CCC(N)=O)cc1

>  <pIC50>
5.63

$$$$
